Reported inhibition at 1 µM is given for each of the following compounds.
Target system: acyl-CoA:cholesterol acyl transferase (ACAT) (Rattus norvegicus)
Construct: small intestine mucosal microsome fraction of a 6-week-old male Sprague-Dawley rat; from tissue; host or cells: rat small intestine mucosa, microsome fraction
Sequence (Q7TQM4 whole entry): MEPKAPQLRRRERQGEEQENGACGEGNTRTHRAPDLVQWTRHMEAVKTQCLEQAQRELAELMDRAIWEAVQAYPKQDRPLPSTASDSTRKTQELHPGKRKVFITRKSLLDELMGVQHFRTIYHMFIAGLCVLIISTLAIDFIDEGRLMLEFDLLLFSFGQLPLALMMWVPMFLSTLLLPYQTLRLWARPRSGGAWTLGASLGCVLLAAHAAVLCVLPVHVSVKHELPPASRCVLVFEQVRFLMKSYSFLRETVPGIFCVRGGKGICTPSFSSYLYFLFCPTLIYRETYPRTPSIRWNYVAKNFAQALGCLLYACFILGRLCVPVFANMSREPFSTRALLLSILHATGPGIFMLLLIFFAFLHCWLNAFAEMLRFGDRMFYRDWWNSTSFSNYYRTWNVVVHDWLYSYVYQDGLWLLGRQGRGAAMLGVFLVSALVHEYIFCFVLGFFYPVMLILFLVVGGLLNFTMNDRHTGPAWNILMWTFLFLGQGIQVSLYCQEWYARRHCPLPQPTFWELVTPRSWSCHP
Assay explanation: Inhibitory action against acyl-CoA:cholesterol acyl transferase (ACAT), formation of labeled cholesterol ester, small intestine mucosal microsome fraction
Format: biochemical, male Sprague-Dawley rat
Assay context: 10^-6 M; read-out: ACAT Inhibitory Rate (%)
Could you give the number and then its unit, please?

Compound: Cc1cccc(C(C)C)c1NC(=O)C[C@@H]1C(=O)N(C)c2ccc(Cl)cc2[C@H]1c1ccccc1 (relative stereo) [Example 23]
Result value: 99.4%
//
Compound: COc1cc(OC)c(NC(=O)Cc2c(-c3ccccc3)c3cc(C)ccc3oc2=O)c(OC)c1 [Example 54]
Result value: 98.4%
//
Compound: COc1cccc(OC)c1NC(=O)Cc1c(-c2ccccc2C)c2cc(Cl)ccc2oc1=O [Example 84]
Result value: 99.5%
//
Compound: Cc1cc(C)c(NC(=O)C[C@@H]2C(=O)N(C)c3ccc(Cl)cc3[C@H]2c2ccccc2)c(C)c1 (relative stereo) [Example 31]
Result value: 97.5%
//
Compound: Cc1ccccc1-c1c(CC(=O)Nc2c(C(C)C)cccc2C(C)C)c(=O)oc2ccc(Cl)cc12 [Example 82]
Result value: 99.3%
//
Compound: CCOc1cccc(OCC)c1NC(=O)Cc1c(-c2ccccc2C)c2cc(Cl)ccc2oc1=O [Example 88]
Result value: 99.7%

Let us examine a further case.
Ask: Which inhibition at 1 µM value belongs to COc1ccccc1-c1c(CC(=O)Nc2c(C(C)C)cccc2C(C)C)oc(=O)c2ccccc12 [Example 56] ?
Result: 98.1%

====

Record type: IC50 measurement. Applies to: substance P receptor (Homo sapiens, UniProt P25103)
Kindly answer with a numeric value in nM, unit omitted.

Before answering, review these 2 worked examples.
Compound: CN(Cc1cc(C(F)(F)F)cc(C(F)(F)F)c1)C(=O)c1c(-c2ccccc2Cl)c2ccccc2n(C)c1=O
Measurement label: IC50
Units of measure: nM
Result value: 2

Compound: Cc1cc2c(-c3ccccc3)c(CC(=O)N(C)Cc3ccccc3Cl)n(C)c(=O)c2cc1C
Measurement label: IC50
Units of measure: nM
Result value: 130

Ask: Item `Cc1ccc2c(=O)oc(C(=O)N(C)Cc3cc(C(F)(F)F)cc(C(F)(F)F)c3)c(-c3ccccc3)c2c1` with substance P receptor (Homo sapiens, UniProt P25103) - IC50?
Result: 5.2

Ask: Item `CN(Cc1cc(C(F)(F)F)cc(C(F)(F)F)c1)C(=O)c1oc(=O)c2ccccc2c1-c1ccc(F)cc1` with substance P receptor (Homo sapiens, UniProt P25103) - IC50?
Result: 0.61

Ask: Item `Cc1cc(C)cc(CNCc2c(-c3ccccc3)c3cc(C)c(C)cc3c(=O)n2C)c1` with substance P receptor (Homo sapiens, UniProt P25103) - IC50?
Result: 28

Ask: Item `COc1nc2ccccc2c(-c2ccccc2)c1C(=O)N(C)Cc1cc(C(F)(F)F)cc(C(F)(F)F)c1` with substance P receptor (Homo sapiens, UniProt P25103) - IC50?
Result: 10

Ask: Item `CN(Cc1cc(C(F)(F)F)cc(C(F)(F)F)c1)C(=O)c1c(Cl)nc2ccccc2c1-c1ccccc1` with substance P receptor (Homo sapiens, UniProt P25103) - IC50?
Result: 1.4

Ask: Item `CN(Cc1cc(C(F)(F)F)cc(C(F)(F)F)c1)C(=O)c1ncc2ccccc2c1-c1ccc(F)cc1` with substance P receptor (Homo sapiens, UniProt P25103) - IC50?
Result: 2.3

Ask: Item `CN(Cc1cc(C(F)(F)F)cc(C(F)(F)F)c1)C(=O)c1c(-c2ccccc2)c2ccccc2n(C)c1=O` with substance P receptor (Homo sapiens, UniProt P25103) - IC50?
Result: 1
